Reported Ki values, Aurora-1 (Aurora B) (Homo sapiens, UniProt Q96GD4).
recorded_metric: Ki

1) Cc1cc(Nc2cc(N3CCC(F)(F)C3)nc(Sc3ccc(NC(=O)CC(F)(F)F)cc3)n2)[nH]n1: 10 to 50 nM
2) Cc1cc(Nc2cc(N3CC[C@@H](F)C3)nc(Sc3ccc(NC(=O)c4ccccc4C(F)(F)F)cc3)n2)[nH]n1: ≤ 10 nM
3) Cc1cc(Nc2cc(N3CCC(F)C3)nc(Sc3ccc(NC(=O)c4ccccc4C(F)(F)F)cc3)n2)[nH]n1 (stereo not shown): ≤ 10 nM
4) Cc1cc(Nc2cc(N3CCC(N4CCCC4)CC3)nc(Sc3ccc(NC(=O)CC(F)(F)F)cc3)n2)[nH]n1: 10 to 50 nM
